Where do the numbers come from? From ChEMBL document CHEMBL4732247.

method-notes: Cmax in Sprague-Dawley rat […] at 1 mg/kg, iv measured up to 8 hrs by HPLC-MS analysis
Assay type: ADME, organism-based
Parameters: route intravenous, dose 1 mg/kg, time <=8
condition-notes: in vivo
quantity-name: Cmax

*Q* GET /values?readout=Cmax&item= "Cc1ncsc1-c1ccc([C@H](C)NC(=O)[C@@H]2C[C@@H](O)CN2C(=O)[C@@H](NC(=O)COCCN2CCN(c3ncc(C(=O)N4[C@@H]5CC[C@H]4C[C@@H](Oc4ccc(C#N)c(Cl)c4)C5)cn3)CC2)C(C)(C)C)cc1"
*A* 14400 ng/mL

* * *

method-notes: Toxicity in AB zebra fish assessed as mortality rate at 5 uM after 5 days relative to control
Parameters: species or system Danio rerio
condition-notes: zebrafish, time 5 day
quantity-name: mortality at 120 h, 5 µM (%)
Give bare numbers, in %.

*Q* Given the compound CNC(=O)c1ccc(N2C(=S)N(c3ccc(C#N)c(C(F)(F)F)c3)C(=O)C2(C)C)cc1F [ENZALUTAMIDE] , what is its reported mortality at 120 h, 5 µM?
*A* 0

* * *

method-notes: AUC in Sprague-Dawley rat […] at 1 mg/kg, iv measured up to 8 hrs by HPLC-MS analysis
Format: ADME, organism-based
Parameters: route intravenous, dose 1 mg/kg, time <=8
condition-notes: in vivo
quantity-name: AUC at 8 h (ng·h/mL)
One number for each entry, in ng·h/mL.

*Q* Need AUC at 8 h, item "Cc1ncsc1-c1ccc([C@H](C)NC(=O)[C@@H]2C[C@@H](O)CN2C(=O)[C@@H](NC(=O)COCCN2CCN(c3ncc(C(=O)N4[C@@H]5CC[C@H]4C[C@@H](Oc4ccc(C#N)c(Cl)c4)C5)cn3)CC2)C(C)(C)C)cc1"
*A* 1770

* * *

method-notes: Toxicity in AB zebra fish assessed as mortality rate at 10 to 200 uM after 5 days relative to control
Set-up: species or system Danio rerio
condition-notes: zebrafish, dose 10-200 µM, time 5 day
quantity-name: mortality at 120 h, up to 200 µM (%)
Numbers only, in %.

*Q* Which mortality at 120 h, up to 200 µM is listed for CNC(=O)c1ccc(N2C(=S)N(c3ccc(C#N)c(C(F)(F)F)c3)C(=O)C2(C)C)cc1F [ENZALUTAMIDE] ?
*A* 100

* * *

method-notes: Toxicity in AB zebra fish assessed as mortality rate at 6.25 to 25 uM after 5 days relative to control
Set-up: species or system Danio rerio
condition-notes: zebrafish, dose 6.25-25 µM, time 5 day
quantity-name: mortality at 120 h (%)
One number for each entry, in %.

*Q* # get_value(readout='mortality at 120 h', item= "Cc1ncsc1-c1ccc([C@H](C)NC(=O)[C@@H]2C[C@@H](O)CN2C(=O)[C@@H](NC(=O)COCCN2CCN(c3ncc(C(=O)N4[C@@H]5CC[C@H]4C[C@@H](Oc4ccc(C#N)c(Cl)c4)C5)cn3)CC2)C(C)(C)C)cc1" )
*A* 0

* * *

method-notes: Toxicity in AB zebra fish assessed as maximum non-toxic concentration after 5 days
Design: species or system Danio rerio
condition-notes: zebrafish, time 5 day, read-out: MTC
quantity-name: MNTC at 120 h (µM)
Give bare numbers, in µM.

*Q* // returns reported MNTC at 120 h for input "Cc1ncsc1-c1ccc([C@H](C)NC(=O)[C@@H]2C[C@@H](O)CN2C(=O)[C@@H](NC(=O)COCCN2CCN(c3ncc(C(=O)N4[C@@H]5CC[C@H]4C[C@@H](Oc4ccc(C#N)c(Cl)c4)C5)cn3)CC2)C(C)(C)C)cc1"
*A* 25
